system: α7 integrin (LacZ reporter in α7+/LacZ myotubes); test: Myotube α7 integrin FDG assay (Burkin assay in myotubes, 96-well); assay type: cell-based, mouse; conditions: 1 uM, myotubes
Burkin Assay in Myotubes (signal relative to DMSO) values, listed per item
metric.name: Burkin Assay in Myotubes (signal relative to DMSO)

| molecule | recorded.result |
| --- | --- |
| Cc1ccc(N(CCC(=O)O)S(=O)(=O)c2cccc(C(F)(F)F)c2)cc1 [MLS000775793-01] | 0.8833 |
| CCOc1ccc2ccccc2c1C1NC(=O)N(C)C(C)=C1C(=O)OCCOC (stereo not shown) [MLS001167424-01] | 0.9596 |
| CN(C)S(=O)(=O)c1cccc(C(=O)Nc2ccc3c(c2)CCC3)c1 [MLS001176611-01] | 0.6671 |
| CCc1ccc(Sc2cc(C(=O)NCCN3CCOCC3)c3ccccc3n2)cc1 [MLS000584511-01] | 1.051 |

###

system: α7 integrin (LacZ reporter in α7LacZ+/− myoblasts); test: qHTS of the LOPAC library and MLSMR (online screen, α7LacZ+/− myoblasts); conditions: Mus musculus, Myoblast, 48 h, read-out: Activity at 0.307 uM [%] **

| compound | unit.symbol | activation at 0.307 µM |
| --- | --- | --- |
| CCNC(=O)COC(=O)c1cc(-c2ccco2)nc2ccccc12 | % | -59.9 |
| COc1ccc(CCNC(=O)c2nn(C)c3c2CS(=O)(=O)c2ccccc2-3)cc1OC | % | -22.8 |
| CSc1ncccc1C(=O)OCC(=O)c1cc(C)n(C)c1C | % | -21 |
| CC(=O)c1ccc(N(C(=O)CNC(=O)c2ccco2)C(C(=O)NC2CCCC2)c2ccc(C)o2)cc1 (stereo not drawn) | % | -20.8 |
| Cc1ccc(NP(=O)(Nc2ccc(C)cc2)Nc2ccc(C)cc2)cc1 | % | 0 |
| CC(C)CC1NC(=O)N(CC(=O)N2c3ccccc3NC(=O)C2(C)C)C1=O (stereo not drawn) | % | 2.86 |
| COCCn1c(=N)c(S(=O)(=O)c2ccc(Br)cc2)cc2c(=O)n3ccccc3nc21 | % | -7.89 |
| CCc1c(C2(O)CCCCC2)[nH]c2ncccc12 | % | -28.5 |
| Cc1cc(OCC(=O)NC(C)C)ccc1Cl | % | 0 |

###

system: β-galactosidase in CMV-LacZ C2C12 myoblasts; experiment: CMV-LacZ secondary screen in C2C12 myoblasts (β-Gal stabilizing assay); type: cell-based, mouse; details: 20 uM; CMV-LacZ C2C12 myoblasts
Binary call on CMV-LACZ in Myoblasts (β-galactosidase activity relative to DMSO) with cut-off 1: strictly below means Fulfilled, and equality or higher means Not fulfilled.

| molecule | discrete.label |
| --- | --- |
| Fc1ccc(-c2ccnc3nc(N4CCN(c5ccccc5)CC4)nn23)cc1 [MLS000546316-01] | Not fulfilled |
| CCc1ccc(S(=O)(=O)NCCOc2cccc3cccnc23)cc1 [MLS001034810-01] | Not fulfilled |
| CCN(CC(=O)NCc1cccs1)C(=O)COc1ccc(C(N)=O)cc1 [MLS002163101-01] | Fulfilled |
| Cc1cccc(Cn2cnc3c(nnn3Cc3ccc(Cl)cc3)c2=O)c1 [MLS000092785-01] | Not fulfilled |
| O=C1CCC(C(=O)N2CCSCC2)CN1Cc1ccc(Cl)cc1 (stereo not shown) [MLS001090787-01] | Fulfilled |
| Nc1ncnc(N2CCc3ccccc32)c1[N+](=O)[O-] [MLS000683232-01] | Fulfilled |
| O=C(O)c1csc(-c2cccs2)n1 [MLS000760876-01] | Fulfilled |
| COc1ccc(C(=O)Cn2nnc(-c3ccccc3NC(=O)c3ccco3)n2)cc1 [MLS000072290-01] | Fulfilled |
| CCCN(C(=O)c1ccc(S(=O)(=O)N2CCCC2)cc1)C1CCS(=O)(=O)C1 (stereo not shown) [MLS002161853-01] | Not fulfilled |
| Cc1ccsc1-c1n[nH]c(=S)n1C1CCCCC1 [MLS000698617-01] | Not fulfilled |
| Cn1c(O)c(C(C#N)=C2N=c3ccccc3=N2)c2ccccc21 [MLS000536064-01] | Not fulfilled |
| CCOn1c(=O)c(-c2ccccc2)[n+]([O-])c2ccccc21 [MLS001197220-01] | Fulfilled |
| O=C(O)CC1(c2ccccc2)C(=O)c2ccccc2C1=O [MLS000052969-01] | Not fulfilled |
| Cn1c(-c2ccccc2)cc2ccccc21 [MLS001215074-01] | Not fulfilled |
| CCn1c(=O)c2cc(C(=O)N(C)c3cc(C)ccc3OC)sc2c2ccccc21 [MLS000731285-01] | Fulfilled |
| Cc1cccc(NCC(=O)N/N=C\c2ccccn2)c1 [MLS000710288-01] | Not fulfilled |
| CN(CCC1CCCCO1)C(=O)CCc1nnc(CCCCc2ccccc2)o1 (stereo not shown) [MLS000735021-01] | Not fulfilled |
| Cc1[nH]c2ccc(F)cc2c1CCN(Cc1ccco1)C(=S)NC(C)(C)C [MLS000419286-01] | Fulfilled |
| O=C(NCCc1ccccc1)C1CCC(=O)N1C1CCCC1 (stereo not shown) [MLS001200665-01] | Fulfilled |
